study target: Disintegrin and metalloproteinase domain-containing protein 17 (Homo sapiens, UniProt P78536)
Sequence (P78536 whole entry, the tested form may be a part): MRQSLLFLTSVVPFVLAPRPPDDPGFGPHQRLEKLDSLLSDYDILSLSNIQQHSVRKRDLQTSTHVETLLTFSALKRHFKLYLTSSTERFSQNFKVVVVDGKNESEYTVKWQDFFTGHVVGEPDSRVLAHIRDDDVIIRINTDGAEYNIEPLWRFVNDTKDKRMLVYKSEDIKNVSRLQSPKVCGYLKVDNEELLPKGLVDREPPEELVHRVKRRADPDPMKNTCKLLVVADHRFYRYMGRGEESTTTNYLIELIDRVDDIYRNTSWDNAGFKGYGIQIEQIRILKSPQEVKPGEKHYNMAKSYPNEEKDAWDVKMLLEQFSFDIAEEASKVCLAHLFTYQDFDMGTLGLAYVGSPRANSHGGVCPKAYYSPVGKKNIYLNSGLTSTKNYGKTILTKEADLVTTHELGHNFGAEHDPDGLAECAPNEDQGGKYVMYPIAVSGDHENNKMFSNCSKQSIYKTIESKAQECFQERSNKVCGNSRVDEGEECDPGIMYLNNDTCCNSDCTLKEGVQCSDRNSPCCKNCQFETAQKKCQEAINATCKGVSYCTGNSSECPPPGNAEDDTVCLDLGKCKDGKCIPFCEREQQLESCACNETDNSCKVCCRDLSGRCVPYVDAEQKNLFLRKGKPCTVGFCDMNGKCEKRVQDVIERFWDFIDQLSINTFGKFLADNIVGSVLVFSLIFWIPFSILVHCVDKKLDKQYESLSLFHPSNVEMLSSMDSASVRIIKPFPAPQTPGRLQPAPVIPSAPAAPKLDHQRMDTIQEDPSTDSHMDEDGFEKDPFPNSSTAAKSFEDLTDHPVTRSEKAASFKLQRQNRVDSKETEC
assay name: Inhibition of TNF(tumor necrosis factor) in human blood
Assay type: functional
metric: IC50

CNC(=O)[C@@H](NC(=O)[C@@H](CC(=O)NO)CC(C)C)C(C)(C)C; > 50 µM
CNC(=O)[C@@H](NC(=O)[C@H](CC(C)C)[C@H](OCc1ccc2ccccc2c1)C(=O)NO)C(C)(C)C; 7.3 µM
CNC(=O)[C@@H](NC(=O)[C@H](CC(C)C)[C@H](Sc1cccc(C(C)(C)C#N)c1)C(=O)NO)C(C)(C)C; 2.8 µM
CNC(=O)[C@@H](NC(=O)[C@H](CC(C)C)[C@@H](C(=O)NO)N1CCCC1)C(C)(C)C; 6.1 µM
CNC(=O)[C@@H](NC(=O)[C@H](CC(C)C)[C@H](NS(=O)(=O)c1cccc2cccnc12)C(=O)NO)C(C)(C)C; 8.1 µM

# map each compound to its IC50
1. CNC(=O)[C@@H](NC(=O)[C@H](CC(C)C)[C@H](OCc1ccc2c(ccc(=O)n2C)c1)C(=O)NO)C(C)(C)C
2. CNC(=O)[C@@H](NC(=O)[C@H](CC(C)C)[C@H](NCCCSC)C(=O)NO)C(C)(C)C
3. CNC(=O)[C@@H](NC(=O)[C@H](CC(C)C)[C@H](NS(=O)(=O)c1ccc2c(c1)CCC(=O)N2C)C(=O)NO)C(C)(C)C
4. CNC(=O)[C@@H](NC(=O)[C@H](CC(C)C)[C@H](NS(=O)(=O)c1cccc2c(=O)[nH]cnc12)C(=O)NO)C(C)(C)C
5. CNC(=O)[C@@H](NC(=O)[C@H](CC(C)C)[C@H](SC)C(=O)NO)C(C)(C)C

1: 1.44 µM; 2: 4.6 µM; 3: 3 µM; 4: 4.9 µM; 5: 2.3 µM

====

study target: Disintegrin and metalloproteinase domain-containing protein 17 (Homo sapiens, UniProt P78536)
assay name: Inhibitory activity against Tumor necrosis factor alpha-converting enzyme (TACE) in blood.
Assay type: tissue-based
metric: IC50 (nM)
Answers are plain numbers, in nM.

Check out these entries, answers already filled in.
CNC(=O)[C@@H](NC(=O)[C@H](CC(C)C)[C@H](NCc1ccc2ccccc2c1)C(=O)NO)C(C)(C)C; 0.57
CNC(=O)[C@@H](NC(=O)[C@H](CC(C)C)[C@H](Sc1ccc(F)cc1Cl)C(=O)NO)C(C)(C)C; 1.1
CNC(=O)[C@@H](NC(=O)[C@H](CC(C)C)[C@H](OCc1ccc2c(ccc(=O)n2C)c1)C(=O)NO)C(C)(C)C; 1

// input: 4 compounds below; output: IC50 for each
1. CNC(=O)[C@@H](NC(=O)[C@H](CC(C)C)[C@H](NS(=O)(=O)/C=C/c1ccccc1)C(=O)NO)C(C)(C)C
2. CNC(=O)[C@@H](NC(=O)[C@H](CC(C)C)[C@H](Sc1ccc(S(C)(=O)=O)cc1)C(=O)NO)C(C)(C)C
3. CNC(=O)[C@@H](NC(=O)[C@H](CC(C)C)[C@H](Sc1cccc(C(C)(C)C#N)c1)C(=O)NO)C(C)(C)C
4. CNC(=O)[C@@H](NC(=O)[C@H](CC(C)C)[C@H](Sc1ccc2c(c1)CCC(=O)N2C)C(=O)NO)C(C)(C)C

[0.54, 1.25, 1.6, 1.4]

For each listed entry, give its IC50.
1. CNC(=O)[C@@H](NC(=O)[C@H](CC(C)C)[C@H](Sc1ccc(OC)c(OC)c1)C(=O)NO)C(C)(C)C
2. CNC(=O)[C@@H](NC(=O)[C@H](CC(C)C)[C@H](OCc1ccc2oc(=O)ccc2c1)C(=O)NO)C(C)(C)C
3. CNC(=O)[C@@H](NC(=O)[C@H](CC(C)C)[C@H](SCc1cccc2cccnc12)C(=O)NO)C(C)(C)C
4. CNC(=O)[C@@H](NC(=O)[C@H](CC(C)C)[C@H](OCc1ccc2ccccc2c1)C(=O)NO)C(C)(C)C

1.2
0.79
0.8
0.6

Cited source: ChEMBL document CHEMBL1132484
